Test: physchem
Cut-off 4 on pKa, inclusive. At or above means YES; below means NO.

Recorded results for 3 molecules are shown here.
CN1CCN(c2c(F)cc3c(=O)c(C(=O)O)cn(CCF)c3c2F)CC1 [FLEROXACIN] : YES
O=C(Nc1ccc(Cl)c(S(=O)(=O)N2CCNCC2)c1O)Nc1cccc(F)c1Cl [ELUBRIXIN] : YES
O=C(NS(=O)(=O)c1ccccc1)N1CCC(N2CCC(Oc3ccc(Cl)c(Cl)c3)CC2)CC1 : NO

[Q] Kindly determine if pKa recorded for `Cc1nn(-c2ccccc2)c(NC(=O)NS(=O)(=O)c2ccc(Cl)cc2)c1C#N` is above or exactly 4.
[A] NO

[Q] Would you say CN(C)C1CCc2c(ccc(O)c2O)C1 (centres undefined) shows pKa at minimum 4?
[A] YES

[Q] API: above_or_equal(metric=pKa, cutoff=4) for item CN(C(=O)c1c(O)c2ccccc2n(C)c1=O)c1ccccc1 [ROQUINIMEX]
[A] YES

[Q] Exam item: decide whether the reported pKa for `CCS(=O)(=O)c1ccc(-c2cc(C(F)(F)F)ccc2OCC(=O)O)c(Cl)c1` is at least 4.
[A] NO

[Q] Form field: pKa at least 4? Entry: `Nc1cc(-c2cc(C(F)(F)F)ccc2Oc2cc(F)c(S(=O)(=O)Nc3ncns3)cc2Cl)ccn1`
[A] NO

[Q] Record CC1(C)S[C@@H]2[C@H](NC(=O)[C@H](NC(=O)N3CCNC3=O)c3ccccc3)C(=O)N2[C@H]1C(=O)O [AZLOCILLIN] ; criterion: pKa no lower than 4. Met?
[A] NO

[Q] Test whether the molecule `CCS(=O)(=O)c1ccc(-c2cc(Cl)ccc2OCC(=O)O)c(F)c1` records pKa of 4 or higher.
[A] NO

[Q] Is it the case that NC1CCN(c2c(F)cc3c(=O)c(C(=O)O)cn(C4CC4)c3c2Cl)C1 (centres undefined) [CLINAFLOXACIN] has pKa reaching or exceeding 4?
[A] YES
